These measurements were taken from the supplement of paper PMC9170038.

- Test system: MS2 coat protein
- ASSAY REMARKS: apparent KD of MS2 coat protein; designed switch direction (-1 OFF switch, 1 ON switch): -1; higher = weaker reporter binding
- CONDITION SUMMARY: input ligand: none
Listed next: entries and their corresponding apparent KD of MS2 coat protein.
Express it in nM; write the number only.

Solved cases (5 shown):
- SEQ: "AAGACUCGCAAUAAGAACAAGCACUCCGAACUAUAAGUAACAUGAGGAUCACCCAUGUCAAGGGUGCCAAAGUCAAA [JR_Sensorv2_tov2_Sub302] (Eterna round: R96, puzzle: Sensor v2, turn-off variant 2)"
  apparent KD of MS2 coat protein [nM]: 18.6
- SEQ: "GCUAGAGCAGGAUAUCUAGAUCCACACAUGAGGAUCACCCAUGUAGUCGAAAGACUAAGAAGAGAAGGGCUCUAGC [Omei Ex5 E16] (Eterna round: R97, puzzle: Exclusion 5)"
  apparent KD of MS2 coat protein [nM]: 324
- SEQ: "CUGAUGUGAGGAUAUCUACGCCAUGUCUUUGACAUGGCGCAAGAGAAGGCACAUGAGGAUCACCCAUGUACUUC [jl-ex4-4.41 ViennaUCT mod] (Eterna round: R97, puzzle: Exclusion 4)"
  apparent KD of MS2 coat protein [nM]: 27.9
- SEQ: "CCGGAACAUGAGGAUCACCCAUGUGAGGAUAUCGUACGUUCGUCGAAAGACGAUCGUACGAGAAGGCACGCCGG [Eli x1 4.33] (Eterna round: R97, puzzle: Exclusion 1)"
  apparent KD of MS2 coat protein [nM]: 14.6
- SEQ: "CACCUACAUGAGGAUCACCCAUGUGAGGAUAUGGAACAACAAGAACAUUUACUUGUUCCCAGAAGGCACAUUGG [jun14#1] (Eterna round: R97, puzzle: Exclusion 1)"
  apparent KD of MS2 coat protein [nM]: 130

q: What measured apparent KD of MS2 coat protein goes with AUUAAUGUCAAAGGAUAUCAGCACGAUUAGUGCUGAGAAGGUUGAACAUGAGGAUCACCCAUGUAGAUCAUUAAUAAUUUAAUU [ENG1/10-B2] (Eterna round: R96, puzzle: Exclusion NG 1) ?
a: 16.9

q: Then AGGAUGUGAGGAUAUCCAUCCCGCGAAUGCGGGUAAUAAAUGGAGAAGGCACAUGAGGAUCACCCAUGUGAUGA [Laleatus] (Eterna round: R97, puzzle: Exclusion 4) ?
a: 47.8

q: One more sequence: ACUGUGACGUAGGAUAUCUCCUAAUUGCGCCGGAGAGAAGGACGUACAUGAGGAUCACCCAUGUGCCCUCGGAA [EX6 B.13] (Eterna round: R97, puzzle: Exclusion 6)
a: 56.4

q: Quick one: AGAGAGAUAGGAUAUACGUGGUUUUCUCAGGUCUAAGUUCAACAUGAGGAUCACCCAUGUAGAAGGAUCAAAAG [EX2 C.14] (Eterna round: R97, puzzle: Exclusion 2)
a: 156

q: One more sequence: UGAUUGUGAGGAUAUUCUGAAUAAGGCACGGGCGUCUUAUUGAAGAAGGCACAUGAGGAUCACCCAUGUGGGUU [Eternabot (L2) Solution 90] (Eterna round: R97, puzzle: Exclusion 4)
a: 188
